Where do these numbers come from? They come from patent US20180016324A1.

- System Tested: T1, ZIKV (prM80E) with a C-terminal myc-myc-hexahistidine tag (Zika virus, UniProt A0A024B7W1 104-694)
- T1 construct: also called ZIKV (prM80E)-mmH; ZIKV-mmH
- Assay Method Text: SPR, mAb captured, 37C, pH 7.4
Each record here notes measured t½.
Please make sure the unit comes right after the number.

Below, each entry is followed by its recorded t½ result.
[
  {
    "Binder": "H4H25710N (antibody, V domains shown) VH: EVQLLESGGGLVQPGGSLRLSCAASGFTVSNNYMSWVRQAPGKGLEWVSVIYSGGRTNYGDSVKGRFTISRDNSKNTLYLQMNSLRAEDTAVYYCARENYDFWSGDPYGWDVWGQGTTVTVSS VL: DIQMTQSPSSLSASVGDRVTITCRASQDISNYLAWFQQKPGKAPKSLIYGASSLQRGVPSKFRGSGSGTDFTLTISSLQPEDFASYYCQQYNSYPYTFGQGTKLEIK",
    "Measured Value": "2.14 min"
  },
  {
    "Binder": "H4H25591P (antibody, V domains shown) VH: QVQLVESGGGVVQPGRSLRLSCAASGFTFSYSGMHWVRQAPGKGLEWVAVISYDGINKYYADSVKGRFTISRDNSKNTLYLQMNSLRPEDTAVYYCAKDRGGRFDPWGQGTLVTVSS VL: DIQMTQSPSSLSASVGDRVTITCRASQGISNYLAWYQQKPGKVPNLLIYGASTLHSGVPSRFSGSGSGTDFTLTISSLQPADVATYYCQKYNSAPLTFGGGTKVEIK",
    "Measured Value": "1.83 min"
  },
  {
    "Binder": "H4H25619P (antibody, V domains shown) VH: QVQLVESGGGVVQPGRSLRLSCTASGFTFSTYGMHWVRHVPGKGLEWVAIVWYDGSDKSYAASVKGRFTISRDNSKNTLFLQMNSLRAEDTAVYYCARQGTYYYYGMDVWGQGTTVTVSS VL: DIQMTQSPSSLSASVGDRVTITCRSSQTITNYLNWYQQRPGKAPKLLIYAASSLQSGVPSRFSGSGSGTDFTLTISSLQPEDFATYYCQQSYSTPPITFGQGTKLEIKR",
    "Measured Value": "6 min"
  },
  {
    "Binder": "H4H25641P (antibody, V domains shown) VH: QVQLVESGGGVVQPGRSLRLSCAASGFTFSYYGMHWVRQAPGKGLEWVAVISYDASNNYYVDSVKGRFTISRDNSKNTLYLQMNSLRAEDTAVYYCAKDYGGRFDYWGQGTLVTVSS VL: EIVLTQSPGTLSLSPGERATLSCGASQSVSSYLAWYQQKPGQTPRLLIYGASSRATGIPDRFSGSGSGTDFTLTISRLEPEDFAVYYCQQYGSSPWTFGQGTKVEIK",
    "Measured Value": "0.61 min"
  }
]

q: // query t½ value for entry H4H25637P (antibody, V domains shown) VH: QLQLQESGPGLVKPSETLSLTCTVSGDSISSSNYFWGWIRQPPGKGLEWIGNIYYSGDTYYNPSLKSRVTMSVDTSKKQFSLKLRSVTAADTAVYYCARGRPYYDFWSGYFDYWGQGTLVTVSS VL: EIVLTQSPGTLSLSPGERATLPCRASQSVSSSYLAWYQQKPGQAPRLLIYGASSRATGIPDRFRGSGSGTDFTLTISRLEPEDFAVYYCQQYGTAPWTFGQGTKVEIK
a: 0.98 min

q: And H4H25617P (antibody, V domains shown) VH: EVQLVESGGGLVQPGGSLRLSCSASGFTFTTYAMSWVRQAPGRGLEWVSSISGTGVSTYYADSVKGRFTISRDNSKNALYLQMNSLTAEDTAVYYCAKDSGTYHWGQGTLVTVSS VL: EIVLTQSPATLSLSPGERATLSCRASQSVDSYLAWYQQKPGQAPRLLIYDASNRATGIPARFSGSGSGTDFTLTISSLESEDFAVYYCQQRRNWPQFTFGGGTKVEIK ?
a: 1.92 min

q: And H4H25587P (antibody, V domains shown) VH: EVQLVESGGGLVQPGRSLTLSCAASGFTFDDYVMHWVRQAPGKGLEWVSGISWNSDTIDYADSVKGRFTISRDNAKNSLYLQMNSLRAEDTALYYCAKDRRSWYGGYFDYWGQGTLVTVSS VL: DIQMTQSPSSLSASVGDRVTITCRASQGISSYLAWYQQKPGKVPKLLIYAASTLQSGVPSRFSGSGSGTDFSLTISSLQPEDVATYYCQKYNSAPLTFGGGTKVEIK ?
a: 0.64 min

q: And H4H25598P (antibody, V domains shown) VH: EVQLVESGGGLVQPGGSLRLSCAASGFTVSSNYMSWVRQAPGSGLEWVSVIYSGGITHYIGSVKGRFTISRHNSKNTLYLQMNSLRAEDTAMYYCARERYSGITGNPYGFDFWGQGTMVTVSS VL: DIQLTQSPSFLSASVGDRVTITCWASQDISSYLAWYQQKPGIAPKLLIYSASTLQSGVPSSFSGSGSGTEFTLTISSLQPEDFATYYCQQLNIYPFTFGPGTKVDIK ?
a: 29.1 min

q: And H4H25592P (antibody, V domains shown) VH: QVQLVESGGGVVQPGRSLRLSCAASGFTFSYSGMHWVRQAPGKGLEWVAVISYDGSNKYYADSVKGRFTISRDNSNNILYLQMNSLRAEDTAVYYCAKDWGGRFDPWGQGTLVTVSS VL: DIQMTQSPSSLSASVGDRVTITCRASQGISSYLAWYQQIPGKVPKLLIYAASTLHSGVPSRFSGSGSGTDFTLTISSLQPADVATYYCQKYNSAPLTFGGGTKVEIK ?
a: 6.63 min
